The entries below are paired with their reported inhibition at 1 µM.
- tested on: FAAH (Mus musculus (Mouse))
- Sequence (O08914 whole entry): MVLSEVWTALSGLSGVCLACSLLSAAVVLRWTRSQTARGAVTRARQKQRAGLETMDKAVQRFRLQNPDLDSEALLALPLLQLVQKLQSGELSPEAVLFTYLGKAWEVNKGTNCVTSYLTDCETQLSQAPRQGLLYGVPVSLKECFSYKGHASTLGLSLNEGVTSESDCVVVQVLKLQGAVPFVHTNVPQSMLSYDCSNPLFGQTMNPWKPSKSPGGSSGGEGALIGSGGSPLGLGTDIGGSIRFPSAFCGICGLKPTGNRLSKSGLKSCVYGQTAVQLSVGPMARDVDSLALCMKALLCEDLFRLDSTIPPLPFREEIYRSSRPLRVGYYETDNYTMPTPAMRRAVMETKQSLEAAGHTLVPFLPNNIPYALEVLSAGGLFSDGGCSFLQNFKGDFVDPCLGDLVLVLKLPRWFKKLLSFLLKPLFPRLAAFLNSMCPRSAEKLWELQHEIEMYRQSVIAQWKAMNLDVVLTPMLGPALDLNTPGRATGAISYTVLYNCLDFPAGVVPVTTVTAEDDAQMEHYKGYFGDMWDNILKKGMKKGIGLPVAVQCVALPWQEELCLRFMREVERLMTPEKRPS
- assay text: In vitro competitive activity-based protein profiling, FAAH (mouse)
- Format: biochemical
- condition description: 1 μM, read-out: FAAH % inh. 1 μM (mouse)

// worked examples, inhibition at 1 µM included
compound	inhibition at 1 µM
CC(=O)N(C)c1cnn(C(=O)N2CC3(CCN(Cc4ccc(C)cc4)CC3)C2)c1	25 to 50%
CC(=O)N(C)c1cnn(C(=O)N2CC3(CCN(Cc4ccc(N5CCCC5)cc4)CC3)C2)c1	25 to 50%
CC(=O)N(C)c1cnn(C(=O)N2CCC3(CC2)CN(Cc2cccc(N4CCOCC4)c2)C3)c1	25 to 50%

Determine its reported inhibition at 1 µM: CC(=O)N(C)c1cnn(C(=O)N2CC3CN(Cc4ccc(F)c(Cl)c4)CC3C2)c1 (centres unmarked)
≥ 75%

Determine its reported inhibition at 1 µM: CC(=O)N(C)c1cnn(C(=O)N2CCC3(CCN(Cc4ccc(-c5nccs5)cc4Cl)C3)C2)c1 (centres unmarked)
≥ 75%

Determine its reported inhibition at 1 µM: CC(=O)N(C)c1cnn(C(=O)N2C[C@H]3C[C@H](N(C)Cc4ccc(N5CCCC5)c(C(F)(F)F)c4)C[C@H]3C2)c1
≥ 75%

Determine its reported inhibition at 1 µM: CC(=O)N(C)c1cnn(C(=O)N2C[C@H]3C[C@H](NCc4cccc(Cl)c4)C[C@H]3C2)c1
≥ 75%

Determine its reported inhibition at 1 µM: CC(=O)N(C)c1cnn(C(=O)N2CC3CN(Cc4ccc(OCC(=O)N5CCCC5)cc4C(F)(F)F)CC3C2)c1 (centres unmarked)
≥ 75%
